- experimental-target: DLG4-3, third PDZ domain of DLG4 (human, UniProt P78352 313-393)
- Sequence (P78352 313-393): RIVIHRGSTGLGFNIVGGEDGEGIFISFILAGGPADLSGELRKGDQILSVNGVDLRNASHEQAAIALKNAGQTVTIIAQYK
- protocol-text: fluorescence polarisation; direct: N-terminally fluorescein-labelled PBM peptide (tracer) with increasing amounts of MBP-PDZ; 384-well plates; triplicate; direct binding model (ProFit)
- condition-description: both partners purified
Where no end group is shown, it is not given here.
measured-parameter: Kd

Memo: fluorescein-RTRRETQL (source: synthetic peptide) [f16E6, fluorescein-labelled HPV16 E6 PBM peptide] , reported Kd: 7.27 µM
